Provide the recorded viability at 10 µM for the entries that follow.
# protocol.summary: in vitro
# experimental.conditions: keratinocyte culture
Give bare numbers, in %.

compound	viability at 10 µM, %
CC1CCCCCC/C=C\CCCCCCCC(=O)O[C@H]2[C@H](O)[C@@H](O)[C@H](O[C@H]3[C@H](O1)O[C@H](CO)[C@@H](O)[C@@H]3O)O[C@@H]2CO (some centres unmarked) [Sophorolipid in Lactone Form]	101

Please turn your attention to the following entry.
What viability at 10 µM value was documented for this compound, CC(CCCCCC/C=C\CCCCCCCC(=O)O)O[C@@H]1O[C@H](CO)[C@@H](O)[C@H](O)[C@H]1O[C@@H]1O[C@H](CO)[C@@H](O)[C@H](O)[C@H]1O (some centres unmarked) [Sophorolipid in Acid Form] ?
99.8

---

# protocol.summary: Cytotoxicity on NCTC2544 at 24 hours (neutral red)
# Type: cell-based
# experimental.conditions: human, nctc2544 cells, 10^-2M, read-out: Cellular Viability Rate
Provide the recorded viability at 24 h, 10000 µM for the entries that follow.
One number for each entry, in %.

compound	units	quantitative.readout
CC(CCCCCC/C=C\CCCCCCCC(=O)O)O[C@@H]1O[C@H](CO)[C@@H](O)[C@H](O)[C@H]1O[C@@H]1O[C@H](CO)[C@@H](O)[C@H](O)[C@H]1O (some centres unmarked) [Sophorolipid in Acid Form]	%	7.12

Please turn your attention to the following entry.
What viability at 24 h, 10000 µM value was documented for this compound, CC1CCCCCC/C=C\CCCCCCCC(=O)O[C@H]2[C@H](O)[C@@H](O)[C@H](O[C@H]3[C@H](O1)O[C@H](CO)[C@@H](O)[C@@H]3O)O[C@@H]2CO (some centres unmarked) [Sophorolipid in Lactone Form] ?
6.49

---

# protocol.summary: Cytotoxicity on NCTC2544 at 24 hours (neutral red)
# Format: cell-based
# experimental.conditions: human, nctc2544 cells, 5.10-3M, read-out: Cellular Viability Rate
property: viability at 24 h, 5000 µM (%)
Answers are plain numbers, in %.

compound	viability at 24 h, 5000 µM [%]
CC(CCCCCC/C=C\CCCCCCCC(=O)O)O[C@@H]1O[C@H](CO)[C@@H](O)[C@H](O)[C@H]1O[C@@H]1O[C@H](CO)[C@@H](O)[C@H](O)[C@H]1O (some centres unmarked) [Sophorolipid in Acid Form]	8.34

What viability at 24 h, 5000 µM value was documented for this compound, CC1CCCCCC/C=C\CCCCCCCC(=O)O[C@H]2[C@H](O)[C@@H](O)[C@H](O[C@H]3[C@H](O1)O[C@H](CO)[C@@H](O)[C@@H]3O)O[C@@H]2CO (some centres unmarked) [Sophorolipid in Lactone Form] ?
6.44

---

Provide the recorded viability at 24 h, 100 µM for the entries that follow.
# protocol.summary: Cytotoxicity on primocultures at 24 hours (neutral red), fibroblasts
# Assay type: cell-based
# experimental.conditions: fibroblasts; 24 hours; 10^-4M; read-out: Cellular Viability Rate
Numbers only, in %.

compound	property	quantitative.readout
CC(CCCCCC/C=C\CCCCCCCC(=O)O)O[C@@H]1O[C@H](CO)[C@@H](O)[C@H](O)[C@H]1O[C@@H]1O[C@H](CO)[C@@H](O)[C@H](O)[C@H]1O (some centres unmarked) [Sophorolipid in Acid Form]	viability at 24 h, 100 µM	98.3

Please turn your attention to the following entry.
What viability at 24 h, 100 µM value was documented for this compound, CC1CCCCCC/C=C\CCCCCCCC(=O)O[C@H]2[C@H](O)[C@@H](O)[C@H](O[C@H]3[C@H](O1)O[C@H](CO)[C@@H](O)[C@@H]3O)O[C@@H]2CO (some centres unmarked) [Sophorolipid in Lactone Form] ?
91.2
